# Target Or Test System: T1, insulin-like growth factor II (IGF-II), amino acids 1-67 (human, UniProt P01344 25-91)
# T1 construct: recombinant; also called IGF-II (67aa); IGF2
# T1 sequence (P01344 25-91): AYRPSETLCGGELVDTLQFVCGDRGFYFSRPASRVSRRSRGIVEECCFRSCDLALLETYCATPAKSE
# Assay Explanation: SPR (Flexchip), Fab, 1st of duplicate

| Binder | Kd (nM) |
| --- | --- |
| M0072-G06 Fab (Fab, V domains shown, soluble Fab (sFab); also called R0032-C05) VH: EVQLLESGGGLVQPGGSLRLSCAASGFTFSEYVMWWVRQAPGKGLEWVSVISPSGGYTVYADSVKGRFTISRDNSKNTLYLQMNSLRAEDTAVYYCARDRGGATTLDYWGQGTLVTVSS VL: DIQMTQSPSTLSASVGDRVTITCRASQTISSWLAWYQQKPGKAPKLMIYKAASLGSEVPSRFSGSGSGTEFTLTISSLQPEDFSTYYCQQYKTYPVTFGQGTRLEIKR | 0.58 |
| M0072-C06 Fab (Fab, V domains shown, soluble Fab (sFab); also called R0032-A09) VH: EVQLLESGGGLVQPGGSLRLSCAASGFTFSAYIMTWVRQAPGKGLEWVSSISPSGGYTVYADSVKGRFTISRDNSKNTLYLQMNSLRAEDTAVYYCARDSGFGDPFDYWGQGTMVTVSS VL: DIQMTQSPSSLSASVGDRVTITCRASQSIRNYLNWYQQKPGKAPKLLIYAASKLEDGVPSRFSGSGTGTDFTLTIRSLQPEDFASYFCQQSYSSPGITFGPGTKVEIKR | 5.2 |
